# system_under_test: mitoNEET (Homo sapiens)
measurement_label: Kd (µM)
Answers are plain numbers, in µM.

Form: compound = NS(=O)(=O)c1cc(C(=O)O)c(NCc2ccco2)cc1Cl [Furosemide, furosemide] ; Kd = 53.5

* * *

# system_under_test: mitoNEET (Homo sapiens)
# Sequence (Q9NZ45 32-108 limits assumed): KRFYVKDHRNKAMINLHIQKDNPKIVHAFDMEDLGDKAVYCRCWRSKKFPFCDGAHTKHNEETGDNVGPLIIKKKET
Give measured pIC50 for each item. Keep answers brief.
Numbers only, as −log10 of the molar value.

Look over these answered cases.
CCCCCCNc1cc(Cl)c(S(N)(=O)=O)cc1C(=O)O    5.04
CCCCCCCNc1cc(Cl)c(S(N)(=O)=O)cc1C(=O)O    4.70
NS(=O)(=O)c1cc(C(=O)O)c(Cl)cc1Cl [compound 1, 2,4-dichloro-5-sulfamoylbenzoic acid, reference compound]    2.99

Here are 2 molecules. What values of pIC50 were reported for them?
1. NS(=O)(=O)c1cc(C(=O)O)c(NCc2ccco2)cc1Cl [Furosemide, furosemide]
2. CCCCC/C=C\C/C=C\C/C=C\C/C=C\CCCC(=O)O [Arachidonic acid, reference compound]

Solution:
[4.53, 5.53]
